Test system: M14
Assay: NCI tumour cell line growth inhibition, 48 h
The source made the active and inactive calls. Rule as the data show it: active = GI50 up to about 1.1 µM and inactive = higher.
Choose the fitting class; nothing outside label 1 = active, label 0 = inactive is accepted.

COC1=CC(=O)c2ccccc2C1(CCC=C(C)C)C1=NC(C)(C)CO1 (stereo not given): label 0
COC(=O)C(C(=O)C(=O)Nc1ccc([N+](=O)[O-])cc1)c1nc2ccc([N+](=O)[O-])cc2nc1O (stereo not given): label 0
COc1ccc(-c2[nH]c3ccccc3c2CCNS(=O)(=O)c2ccc(C)cc2)cc1: label 0
Cc1c(CNc2ccc(C(=O)NC(CCCNC(=O)c3ccccc3C(=O)O)C(=O)O)cc2)cnc2nc(N)nc(N)c12 (stereo not given): label 1

Now for a further compound.
Inquiry: Could you please tell me the result logged for `CCOC(=O)/C(=C/c1cccc(OC)c1)N(CC)CC` in this assay?
Reply text: label 0

* * *

Tested on: SNB-19
Experiment: NCI tumour cell line growth inhibition, 48 h
Active and inactive are the calls of the source. No stated cut-off is given here; in the data, active = GI50 up to about 1.1 µM and inactive = higher.
Choose the fitting class; nothing outside t = active, f = inactive is accepted.

Before answering, review these 6 worked examples.
CCCCCCC/C=C1\CCC(CN(C)C)C1=O (stereo not drawn): f
Cc1ccc2c(c1)/C(=N/Nc1ccccc1[N+](=O)[O-])C(=O)N2: f
COc1ccc(C(c2cc(OC)c(OC)c(OC)c2)N2C(=O)CCC2C(=O)O)cc1 (stereo not drawn): f
CCCCCCCCCCCCCC(=O)OCC1OC(n2cc(F)c(=O)[nH]c2=O)C(NC(=O)OCc2ccccc2)C(OC(=O)CCCCCCCCCCCCC)C1O (stereo not drawn): f
CCOC(=O)C1(Cc2ccccc2)Cc2cc3c(cc2C1=O)CCC3 (stereo not drawn): f
CC(=O)c1sc2c(c1OC(=O)c1ccc(Cl)cc1Cl)c(=O)n(-c1ccccc1)c(=S)n2-c1ccccc1: t

Inquiry: Could you please tell me the result logged for CCC1=CCN(c2cc(C)ccn2)OC1c1ccc(OC)cc1 (stereo not drawn) in this assay?
Reply text: f

Inquiry: Could you please tell me the result logged for CCCC(N)C(=O)c1ccccc1 (stereo not drawn) in this assay?
Reply text: f

Inquiry: Could you please tell me the result logged for `O=C(CCCN1CCC2(CC1)/C(=N/C1CCCCC1)NC(=O)N2c1ccccc1)c1ccc(F)cc1` in this assay?
Reply text: f

Inquiry: Could you please tell me the result logged for CCCCN=C(OC1C=CCCC1)SC (stereo not drawn) in this assay?
Reply text: f

Inquiry: Could you please tell me the result logged for `N#Cc1nc(/C=C/c2cccs2)oc1N` in this assay?
Reply text: f

Inquiry: Could you please tell me the result logged for `CCC/C(Cl)=N/OC(=O)Nc1cccc(F)c1` in this assay?
Reply text: f

Inquiry: Could you please tell me the result logged for `CC(=O)OC(C)(C)C[N+](=O)[O-]` in this assay?
Reply text: f

Inquiry: Could you please tell me the result logged for CCCCCC(CN1CCOCC1)C(=O)/C=C/c1ccccc1 (stereo not drawn) in this assay?
Reply text: f

Inquiry: Could you please tell me the result logged for COC1=CC(=O)c2ccccc2C1(CCC=C(C)C)C1=NC(C)(C)CO1 (stereo not drawn) in this assay?
Reply text: f

Inquiry: Could you please tell me the result logged for C/C=C1\CN(C(=O)OC(C)(C)C)C1C(=O)OC(C)(C)C (stereo not drawn) in this assay?
Reply text: f

Inquiry: Could you please tell me the result logged for `CN(CCN1C(=O)c2cccc3cccc(c23)C1=O)CCN1C(=O)c2cccc3cccc(c23)C1=O` in this assay?
Reply text: f

Inquiry: Could you please tell me the result logged for `Nc1c2ccccc2nc2ccc(C(=O)Nc3ccc(S(N)(=O)=O)cc3)cc12` in this assay?
Reply text: f

Inquiry: Could you please tell me the result logged for C=CC(Br)(CBr)CCC(Cl)C(C)C (stereo not drawn) in this assay?
Reply text: f

Inquiry: Could you please tell me the result logged for CN1CCCC(C(=O)OCC(=O)C2(O)CCC3C4CCC5=CC(=O)CCC5(C)C4C(O)CC32C)C1 (stereo not drawn) in this assay?
Reply text: f

Inquiry: Could you please tell me the result logged for CC1(C)CC23C4COC(=O)C2CCC1C3CC4=O (stereo not drawn) in this assay?
Reply text: f

Inquiry: Could you please tell me the result logged for `CN(C)c1nc2sc3c(c2c(=O)o1)CCCC3` in this assay?
Reply text: f

Inquiry: Could you please tell me the result logged for CC1(C)N=C(C2CCCN2C(=O)OCc2ccccc2)OC1=O (stereo not drawn) in this assay?
Reply text: f

* * *

System: OVCAR-3
Test: NCI tumour cell line growth inhibition, 48 h
Active and inactive are the calls of the source. Cut-off read from the data, not from the text of the source: active = GI50 up to about 1.1 µM and inactive = higher.
ASSAY ENDPOINT: GI50

COc1ccc(/N=[N+](\[O-])c2ccc(OC)cc2)cc1: > 100 µM (inactive)
Cc1cc(O)nc2c3c(ccc12)OC(C)(C)C=C3: 4.28 µM (inactive)
O=C1NC2(C=Cc3c(ccc4ccccc34)O2)Oc2ccccc21 (stereo unspecified): 13.4 µM (inactive)
CN1COCc2c1ccc1cc3ccc4c(c3nc21)COCN4S(C)(=O)=O: > 100 µM (inactive)
Cc1ccccc1NC(=O)C(=O)C1CN(c2ccccc2)N=C1N (stereo unspecified): > 100 µM (inactive)

Okay, next one:
Inquiry: Give the observed GI50 of `CCC/C(Cl)=N/OC(=O)Nc1cccc(F)c1` for OVCAR-3.
Reply text: 2.61 µM (inactive)

* * *

Test system: MDA-N
Test: NCI tumour cell line growth inhibition, 48 h
The source made the active and inactive calls. Cut-off read from the data, not from the text of the source: active = GI50 up to about 1.1 µM and inactive = higher.
Choose the fitting class; nothing outside true (1) = active, false (0) = inactive is accepted.

Inquiry: Could you please tell me the result logged for `CCOc1cc2c(NCCCN(CCO)CCO)ncnc2c(OCC)c1OCC` in this assay?
Reply text: false (0)

Inquiry: Could you please tell me the result logged for `Nc1c2ccccc2nc2ccc(C(=O)Nc3ccc(S(N)(=O)=O)cc3)cc12` in this assay?
Reply text: false (0)

Inquiry: Could you please tell me the result logged for `NCCc1nc(-c2nc(C(=O)O)cs2)cs1` in this assay?
Reply text: false (0)

Inquiry: Could you please tell me the result logged for `[N-]=[N+]=NCc1cccc(Nc2cc(=O)[nH]c(=O)[nH]2)c1` in this assay?
Reply text: false (0)

Inquiry: Could you please tell me the result logged for `Brc1sc(Br)c2c1[C@H](Br)C[C@@H]2Br` in this assay?
Reply text: false (0)

Inquiry: Could you please tell me the result logged for `O=C(O)Cc1ccc2nc(COC(=O)c3ccccc3)sc2c1` in this assay?
Reply text: false (0)

* * *

System: SF-268
Experiment: NCI tumour cell line growth inhibition, 48 h
Calls of active or inactive are those of the source. Cut-off read from the data, not from the text of the source: active = GI50 up to about 1.1 µM and inactive = higher.
Choose the fitting class; nothing outside true for active, false for inactive is accepted.

Inquiry: Could you please tell me the result logged for CCSc1ncnc2c(C3OC(CO)C(O)C3O)nsc12 (stereo not given) in this assay?
Reply text: false

Inquiry: Could you please tell me the result logged for `CCC(=O)ONC(=O)Cn1ccc([N+](=O)[O-])n1` in this assay?
Reply text: false

Inquiry: Could you please tell me the result logged for `CSc1c(C#N)c(N)nc2c(/N=N\c3ccc(Cl)cc3)c(N)nn12` in this assay?
Reply text: false

Inquiry: Could you please tell me the result logged for `Cn1nc(-c2ccccc2)c(N=[N+]=[N-])cc1=O` in this assay?
Reply text: false

Inquiry: Could you please tell me the result logged for Cc1ccc(S(=O)(=O)N2CCC3(C(/C=C/c4ccccc4)=Nc4ccccc43)C2c2ccccc2)cc1 (stereo not given) in this assay?
Reply text: false

Inquiry: Could you please tell me the result logged for `O=C1Nc2cccc(Cl)c2/C1=C\c1cccnc1` in this assay?
Reply text: false

Inquiry: Could you please tell me the result logged for `COc1ccccc1NCC(=O)Nn1c(C)nc2ccc(S(=O)(=O)Nc3ccccc3OC)cc2c1=O` in this assay?
Reply text: false

* * *

Tested on: OVCAR-5
Experiment: NCI tumour cell line growth inhibition, 48 h
The source made the active and inactive calls. No stated cut-off is given here; in the data, active = GI50 up to about 1.1 µM and inactive = higher.
ASSAY ENDPOINT: GI50

Reference set, count: 5
COC(=O)C1=C(C(=O)OC)C(Cc2ccccc2)(OO)OC1=O (centres undefined): 18.8 µM (inactive)
CCOC(=O)C1(C(=O)OCC)[C@H](c2ccccc2)C2=NO[C@@H]3CCC[C@H]1[C@H]23: 65.6 µM (inactive)
COc1ccc(NC2=NCCO2)c2ccccc12: > 10 µM (inactive)
O=C1C(c2c(O)[nH]c3ccc([N+](=O)[O-])cc23)=Nc2ccccc21: > 100 µM (inactive)
O=C1Nc2c(Cl)cc(Cl)cc2/C1=N/Nc1ccccc1[N+](=O)[O-]: > 100 µM (inactive)

Inquiry: Report GI50 for `CC(=O)c1sc2c(c1OC(=O)c1ccc(Cl)cc1Cl)c(=O)n(-c1ccccc1)c(=S)n2-c1ccccc1`
Reply text: 0.64 µM (active)

Inquiry: Report GI50 for `O=c1c2sc3ccccc3sc=2c(=O)c2c(Cl)c(Cl)c(Cl)c(Cl)c12`
Reply text: > 100 µM (inactive)

Inquiry: Report GI50 for `Cc1ccc(S(=O)(=O)NC(=O)Nc2nc(Cl)cc(Cl)n2)cc1`
Reply text: > 100 µM (inactive)

Inquiry: Report GI50 for `CSc1c(C#N)c(N)nc2c(/N=N\c3ccc(Cl)cc3)c(N)nn12`
Reply text: 17.3 µM (inactive)

Inquiry: Report GI50 for `Sc1nn2c(Cc3ccccc3)nnc2s1`
Reply text: > 100 µM (inactive)
